Biological target: Serotonin 3 (5-HT3) receptor
Assay: Displacement of [3H]zacopride from 5HT3 receptor
experimentalReadout: Ki

Q: Give the measured Ki of N#Cc1cc(F)cc(C#Cc2csc(CF)n2)c1 .
Ans: > 10 µM

* * *

Target: Histamine H3 receptor (Homo sapiens, UniProt Q9Y5N1)
Sequence (Q9Y5N1 whole entry): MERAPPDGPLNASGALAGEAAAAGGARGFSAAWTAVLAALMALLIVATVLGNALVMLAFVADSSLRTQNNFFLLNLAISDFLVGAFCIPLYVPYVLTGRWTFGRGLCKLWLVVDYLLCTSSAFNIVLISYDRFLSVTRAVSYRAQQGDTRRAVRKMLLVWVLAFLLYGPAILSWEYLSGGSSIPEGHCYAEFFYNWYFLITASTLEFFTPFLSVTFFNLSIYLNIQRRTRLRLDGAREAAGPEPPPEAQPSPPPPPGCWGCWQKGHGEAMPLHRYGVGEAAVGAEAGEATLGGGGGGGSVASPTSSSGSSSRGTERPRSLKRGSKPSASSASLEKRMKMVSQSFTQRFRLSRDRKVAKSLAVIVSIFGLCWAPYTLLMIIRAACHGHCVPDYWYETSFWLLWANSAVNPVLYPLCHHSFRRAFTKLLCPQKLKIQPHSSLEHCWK
pKi: −log10 of the molar value.
experimentalReadout: pKi

Q: pKi lookup needed for N#Cc1cc(F)cc(C#Cc2csc(CF)n2)c1 , thanks.
Ans: < 5.00

* * *

Molecular target: Metabotropic glutamate receptor 1 (Homo sapiens)
Sequence (Q13255 whole entry): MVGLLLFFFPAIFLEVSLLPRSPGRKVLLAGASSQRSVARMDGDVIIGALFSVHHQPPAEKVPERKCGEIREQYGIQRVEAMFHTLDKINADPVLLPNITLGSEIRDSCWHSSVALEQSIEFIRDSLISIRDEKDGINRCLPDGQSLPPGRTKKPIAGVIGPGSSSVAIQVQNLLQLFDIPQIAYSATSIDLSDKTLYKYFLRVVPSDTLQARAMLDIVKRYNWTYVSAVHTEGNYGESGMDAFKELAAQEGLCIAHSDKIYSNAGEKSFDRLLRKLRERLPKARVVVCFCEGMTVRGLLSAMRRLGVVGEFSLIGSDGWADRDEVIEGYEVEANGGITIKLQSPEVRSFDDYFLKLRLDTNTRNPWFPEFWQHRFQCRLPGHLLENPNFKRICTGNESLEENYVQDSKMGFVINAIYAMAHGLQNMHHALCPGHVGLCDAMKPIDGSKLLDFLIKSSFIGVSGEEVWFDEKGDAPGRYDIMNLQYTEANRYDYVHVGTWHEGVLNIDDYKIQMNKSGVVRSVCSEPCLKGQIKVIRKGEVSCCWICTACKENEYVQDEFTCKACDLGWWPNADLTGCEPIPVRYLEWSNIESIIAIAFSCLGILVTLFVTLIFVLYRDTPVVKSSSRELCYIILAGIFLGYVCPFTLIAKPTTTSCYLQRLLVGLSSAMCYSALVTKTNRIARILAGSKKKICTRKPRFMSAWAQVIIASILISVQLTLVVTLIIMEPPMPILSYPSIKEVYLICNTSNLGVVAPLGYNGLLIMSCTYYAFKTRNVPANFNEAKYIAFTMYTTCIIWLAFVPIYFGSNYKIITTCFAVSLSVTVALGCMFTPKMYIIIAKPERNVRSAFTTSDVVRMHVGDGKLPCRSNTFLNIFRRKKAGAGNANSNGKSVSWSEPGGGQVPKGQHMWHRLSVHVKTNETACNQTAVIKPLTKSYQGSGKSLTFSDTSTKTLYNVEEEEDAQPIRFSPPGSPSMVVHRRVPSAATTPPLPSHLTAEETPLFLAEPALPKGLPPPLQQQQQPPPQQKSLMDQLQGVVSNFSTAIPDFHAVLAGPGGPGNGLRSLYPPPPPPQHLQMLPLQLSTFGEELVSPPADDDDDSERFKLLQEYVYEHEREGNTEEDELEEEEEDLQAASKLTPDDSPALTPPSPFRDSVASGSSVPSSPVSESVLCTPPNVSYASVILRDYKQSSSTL
experimentalReadout: Ki

Q: What value of Ki has been recorded for this entry: N#Cc1cc(F)cc(C#Cc2csc(CF)n2)c1
Ans: > 10 µM
